System: PKB Ser473 phosphorylation in Rat1-myr-HA-p110 alpha cells
Assay: Reverse protein array assay, PKB Ser473 phosphorylation in Rat1-myr-p110 alpha cells
Format: cell-based
Conditions: 0.5 h, pAkt Ser473, 30 minutes compound incubation, read-out: p-PKB IC50
recorded_metric: pIC50
Expect pIC50 as a plain number equal to -log10 of the molar concentration.

Below, 5 molecules whose answers are already recorded.
smiles_representation: CCOCc1cc(-c2ccc3ncc4c(c3c2)n(-c2cn(C)nc2Cl)c(=O)n4C)cnc1N
pIC50: 8.30

smiles_representation: Cc1nn(C)cc1-n1c(=O)n(C)c2cnc3ccc(-c4ccccc4)cc3c21
pIC50: 7.01

smiles_representation: Cc1nn(C)c(C)c1-n1c(=O)n(C)c2cnc3ccc(-c4ccc(CO)nc4)cc3c21
pIC50: 6.63

smiles_representation: Cc1nn(C)cc1-n1c(=O)n(C)c2cnc3ccc(-c4cncc(N5CCOCC5)c4)cc3c21
pIC50: 7.77

smiles_representation: Cc1nn(C)cc1-n1c(=O)n(C)c2cnc3ccc(-c4cnc(Cl)c(NS(C)(=O)=O)c4)cc3c21
pIC50: 7.96

Fill in: pIC50 of `CCOCc1ncc(-c2ccc3ncc4c(c3c2)n(-c2cn(C)nc2C)c(=O)n4C)cc1OC` is ___
6.89

Here is the next molecule: `Cc1cc(-n2c(=O)n(C)c3cnc4ccc(-c5cnc(N)c(C(F)(F)F)c5)cc4c32)n(C)n1`
8.10

###

Tested on: PKB Ser473 phosphorylation in Rat1-myr-HA-p110 alpha cells
Assay: Reverse protein array assay, PKB Ser473 phosphorylation in Rat1-myr-p110 alpha cells
Assay type: cell-based
Details: 0.5 h, pAkt Ser473, 30 minutes compound incubation, read-out: p-PKB IC50
recorded_metric: IC50 (nM)
Give your result in nM as a bare value.

Fill in: IC50 of CCNc1cc(-c2ccc3ncc4c(c3c2)n(-c2c(C)nn(CCO)c2C)c(=O)n4C)cnc1C [Example 210] is ___
57

Here is the next compound: Cc1ccc(-c2ccc3ncc4c(c3c2)n(-c2cn(C)nc2C)c(=O)n4C)cn1 [Example 7.2]
14

###

Target: PI3K beta (Homo sapiens, UniProt P42338)
Construct: for the full-length p110-b subunit are generated and fused by overlapping PCR; p85(iSH2) fusion partner (see partner chain) (N); His tag (C); Tn5 (Trichoplusia ni) or TiniPro insect cells
Sequence (P42338 with tags, fused parts or gaps limits assumed): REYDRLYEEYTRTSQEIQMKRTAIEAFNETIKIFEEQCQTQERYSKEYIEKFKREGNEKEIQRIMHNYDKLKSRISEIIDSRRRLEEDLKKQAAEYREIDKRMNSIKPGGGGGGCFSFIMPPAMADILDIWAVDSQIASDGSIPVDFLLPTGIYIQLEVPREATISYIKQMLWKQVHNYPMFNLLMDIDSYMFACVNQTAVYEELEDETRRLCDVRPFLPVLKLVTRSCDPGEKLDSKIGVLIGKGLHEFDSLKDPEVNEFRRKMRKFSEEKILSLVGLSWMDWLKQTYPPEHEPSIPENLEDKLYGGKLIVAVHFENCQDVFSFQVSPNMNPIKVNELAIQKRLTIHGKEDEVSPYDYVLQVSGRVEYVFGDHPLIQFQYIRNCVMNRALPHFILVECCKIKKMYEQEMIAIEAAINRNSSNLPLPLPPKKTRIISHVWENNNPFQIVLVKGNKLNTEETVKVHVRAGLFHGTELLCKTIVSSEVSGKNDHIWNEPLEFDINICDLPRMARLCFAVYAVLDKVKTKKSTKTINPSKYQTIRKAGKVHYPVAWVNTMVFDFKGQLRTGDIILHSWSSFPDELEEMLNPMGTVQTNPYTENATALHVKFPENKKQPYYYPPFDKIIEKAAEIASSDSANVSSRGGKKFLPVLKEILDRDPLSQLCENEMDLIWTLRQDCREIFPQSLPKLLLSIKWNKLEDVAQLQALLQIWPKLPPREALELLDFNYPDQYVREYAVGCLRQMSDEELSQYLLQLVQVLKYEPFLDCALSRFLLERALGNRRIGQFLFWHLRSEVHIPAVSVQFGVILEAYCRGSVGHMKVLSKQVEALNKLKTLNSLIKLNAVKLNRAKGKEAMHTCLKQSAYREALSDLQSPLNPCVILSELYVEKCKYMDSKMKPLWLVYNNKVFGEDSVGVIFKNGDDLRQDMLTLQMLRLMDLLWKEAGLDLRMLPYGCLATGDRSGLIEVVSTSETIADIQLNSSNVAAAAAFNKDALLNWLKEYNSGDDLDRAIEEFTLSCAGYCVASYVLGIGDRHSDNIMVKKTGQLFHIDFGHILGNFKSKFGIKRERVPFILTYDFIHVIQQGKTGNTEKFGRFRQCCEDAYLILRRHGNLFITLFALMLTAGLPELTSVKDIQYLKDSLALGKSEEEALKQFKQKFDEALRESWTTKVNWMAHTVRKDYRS
Experiment: PI3K beta kinase assay (Kinase-Glo luminescence)
pIC50: −log10 of the molar value.
Record satisfied whenever pIC50 is at 7 or higher; record not satisfied when lower.

Recorded results for 4 compounds are shown here.
smiles_representation: COc1ncc(-c2ccc3ncc4c(c3c2)n(-c2cn(C)nc2C)c(=O)n4C)cc1[N+](=O)[O-]
assigned_category: satisfied

smiles_representation: CCOc1cc(-c2ccc3ncc4c(c3c2)n(-c2cn(C)nc2C)c(=O)n4C)cnc1C
assigned_category: satisfied

smiles_representation: CNc1ncc(-c2ccc3ncc4c(c3c2)n(-c2cc(C)nn2C)c(=O)n4C)cc1Cl
assigned_category: not satisfied

smiles_representation: COCCOc1cc(-c2ccc3ncc4c(c3c2)n(-c2cn(C)nc2C)c(=O)n4C)cnc1CO
assigned_category: not satisfied

Switching to the query record.
Entry `COc1cc(-c2ccc3ncc4c(c3c2)n(-c2cn(C)nc2Cl)c(=O)n4C)cnc1CO` : is its pIC50 no less than 7?
satisfied
